The entries below come with measured phosphorylation enrichment values attached.
Tested on: AncSZ;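 note: 11-residue human phosphosite peptides and single-mutation variants displayed on the E. coli surface, counted by deep sequencing, each peptide's frequency after selection divided by its frequency in the unselected input library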;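 note: frequency after pTyr selection over input frequency; kinase dosed for 20-30% of maximal phosphorylation in three min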
assay_details: phosphorylation enrichment, bacterial display (enrichment ratio); higher = better substrate or ligand; peptides without Tyr show the background
readout_kind: phosphorylation enrichment

>>> measurement("ARAGEYGAEAL [HBA1_Y25_H21R]")
0.866
>>> measurement("IPPRRYFRSGV [STAMBP_Y36]")
0.778
>>> measurement("NEKNIYRVPLM [BMPR2_Y247]")
0.622
>>> measurement("PVQAAYQKVVA [HBB_Y131]")
0.41
>>> measurement("FGVTLYPNSGE [MEP1A_Y472_R476G]")
1.28
>>> measurement("GFITSYREEEQ")
1.19
>>> measurement("DTQNSYRCATS [TSC1_Y304_G305R]")
0.771
>>> measurement("TGHKGYVAFLE [CARD9_Y76]")
0.674

###

target: c-Src SH2
assay_details: SH2 binding enrichment of the phosphorylated peptide, bacterial display (enrichment ratio); higher = better substrate or ligand; peptides without Tyr show the background
Label 1 when SH2 binding enrichment >= 0.6; otherwise 0.

>>> answer_label("IPPRRYFRSGV [STAMBP_Y36]")
0
>>> answer_label("VFAPDFIAGVS [NOB1_Y366_Y366F]")
0
>>> answer_label("HVKHNYECLVF [XRCC5_Y416_I412V_YF]")
1
>>> answer_label("RKMSSYAFFVQ [HMGB1_Y16_G11R]")
1
>>> answer_label("FIATQYSLRPR [LBR_Y166_YF]")
0

###

target: c-Src SH2;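 note: peptide library displayed on the E. coli surface as eCPX fusions, selected cells deep-sequenced, score is each peptide's frequency after selection divided by its frequency in the input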
assay_details: SH2 binding enrichment of the phosphorylated peptide, bacterial display (enrichment ratio); higher = better substrate or ligand; peptides without Tyr show the background
readout_kind: SH2 binding enrichment

>>> measurement("WFPANYVKLLN [ITSN1_Y1132_S1137N]")
0.646
>>> measurement("TLMNAYSSCSH [KIF11_Y231_R234C]")
1.24
>>> measurement("PKGIRYGQGAG [CSRP3_Y73_G72R]")
0.484
>>> measurement("AHDGEYGAEAL [HBA1_Y25_A22D]")
0.493
>>> measurement("PLCPDYQEPSR [DDR2_Y481_R478C]")
0.786
>>> measurement("LSEEKYELKEG [TREM1_Y29_T25S]")
0.391
>>> measurement("SKKSTYQALLD [GANC_Y43]")
0.555
>>> measurement("KLSCSYSHLSA [C4BPA_Y470_W473L]")
0.631
>>> measurement("TFQFKYPEGSS [TGM4_Y440_E437Q_YF]")
0.568
>>> measurement("IMITDYLLLFR [INSR_Y87]")
1.04
>>> measurement("TINPIHEHVGY [CHN1_Y143_Y143H]")
0.58
>>> measurement("VGTKRYVAPEV [ACVRL1_Y375_M376V]")
0.354
>>> measurement("TLSGIYQFSIA [FOXL2_Y81_I84S_YF]")
0.533
>>> measurement("FMMMRYSQNIR [SDAD1_Y656_V660I]")
0.883
>>> measurement("IMVFVYSRVFQ [ADRB2_Y219]")
0.591
>>> measurement("NSAFFYKTAEE [CCT6B_Y250_G247A]")
0.565
>>> measurement("VLSIDYYFPPQ [AR_Y552_P549S]")
1.34
>>> measurement("GHEYIYVDPMQ [PDGFRA_Y574]")
0.749
>>> measurement("NKKFHYRELPV [ERN2_Y860_H858Y_YF]")
0.678
>>> measurement("PATFTYDEFKK [COL8A2_Y648_YF]")
0.791
>>> measurement("NYAKMYCNPDA [KNL1_Y489]")
2.11
>>> measurement("LTMAPYSSVSL [FAM81A_Y24]")
2.72
>>> measurement("EELLHYAIVTP [POC5_Y37]")
1.13
>>> measurement("VLICAYLLHRG [PTEN_Y138_M134L]")
1.09
>>> measurement("KLASTYREAAT [DEAF1_Y483_H479L]")
0.418
>>> measurement("TLPAFYMENFS [GLB1_Y552_G554E]")
0.484
>>> measurement("TLQIMYGCDVG [HLA-A_Y123_I119L]")
0.546
>>> measurement("ADEDIYGVLPA [LYNtide_2014]")
0.401
>>> measurement("PFVFFYSFLLK [PTEN_Y178_R173P_YF]")
0.496
>>> measurement("ILTFKYLQIPM [KIT_Y547_K550I_YF]")
1.17
>>> measurement("SYTDPYAQPPL [KMT2D_Y2378]")
1.02
>>> measurement("PVQAAYQKVVA [HBB_Y131]")
0.706
>>> measurement("EPNSRYTYKLE [USH2A_Y3745]")
0.663
>>> measurement("EDEGLYTVRVP [MYOM3_Y343_M344T]")
0.488
>>> measurement("PVADRYDQSFE [MAPK14_Y323_P322R]")
0.945
>>> measurement("IRTDAYVPAMT [RPE65_Y89_R91P]")
0.463
>>> measurement("PEEKVYLSRGD [CRACR2A_Y141_H136P]")
0.457
>>> measurement("YRVDCYKNFVA [FHL1_Y213_C209R]")
0.556
>>> measurement("QTEAQYRFIFM [PTPN11_Y511_YF]")
0.355
>>> measurement("DIPIRYSITGV [CDH4_Y205]")
0.53
>>> measurement("TENAGYFFRVS")
0.466
>>> measurement("APSHAYHGGVL [ANO1_Y981]")
0.629
>>> measurement("SYCYRYCCAAR [SUMF1_Y344_R345C]")
0.931
>>> measurement("SSQHRYSTPHT [RAF1_Y232_A237T]")
3.04
>>> measurement("TTKAKYKTPIF [PLD2_Y573_T577I_YF]")
0.764
>>> measurement("GGRIDYIAGLV [APRT_Y60_D65V]")
0.382
>>> measurement("EEALYYLTRVE [SET_Y119_H118Y]")
0.669
>>> measurement("FNSLLYQVPTS [CALCOCO2_Y358_P357L]")
0.538
>>> measurement("MEKEKYVSYIS [JMJD1C_Y596]")
0.432
>>> measurement("MDDPRYGVCPL [ZNF100_Y6_M8V]")
0.613
>>> measurement("GFITSYREEEQ")
0.502
>>> measurement("WAMPAYNRSKL [WWOX_Y293_L291P]")
0.431
>>> measurement("TPGPNYCPGFN [USH2A_Y463_R464C_YF]")
0.632
>>> measurement("MTFMFYRENLR [NLRP14_Y443_V441M_YF]")
0.567
>>> measurement("SLFNGYVFSGV [NEIL3_Y71_YF]")
0.967
>>> measurement("DHLASYLDKVR [KRT10_Y160_R156H]")
0.44
>>> measurement("IVLEKYKLLPE [DHFR_Y157_D153V]")
0.575
>>> measurement("CPFNLYAEQLS [HGD_Y40_YF]")
0.645

The reported numbers originate from the supplement of paper PMC10065799.
